- TARGET_DESC: FLuc-C-HiBiT (Photinus pyralis)
- Construct: firefly luciferase with C-terminal HiBiT tag, E. coli expressed
- ASSAY_NAME: biochemical
- ASSAY_CONTEXT: enzyme activity, 10 uM ATP; read-out: IC50 or SDR50 (mM) / FLuc E
READOUT_LABEL: log10 of IC50 (log10 of the value in mM)
Form field - Quantity: IC50; Unit: mM; Scale: log10

Problem: Fill blank: measured log10 of IC50 of the molecule Cc1ccc(CSc2nc3cccnc3n2Cc2ccc(C(=O)NCc3ccco3)cc2)cc1 is ____.
Solution: -3.20

Problem: Fill blank: measured log10 of IC50 of the molecule c1ccc(-c2cnc(Nc3ccc4c(c3)OCCO4)c3c2CCO3)cc1 is ____.
Solution: -1.79

Provide log10 of IC50 for all items below, preserving their order.
1. O=C(Cc1cccc(Cl)c1)N1CCn2c(nnc2-c2ccccc2)C1
2. C=Cc1ccc(-c2nc3ccc(OC)cc3s2)cc1
3. O=C(Nc1cnc(-c2ccc(Cl)cc2)nc1)C1CCC1
4. CC(NC(=O)c1cccc2c1CCN2C(=O)Nc1ccccc1)c1cccnc1 (stereo not drawn)
5. CCN1CCN(c2csc3ccc(Cl)cc3c2=O)CC1
6. Cc1ccc(C2Cn3nnc(C(=O)N4CCC(C(=O)NCCc5ccccc5)CC4)c3CO2)cc1 (stereo not drawn)
7. COCCNc1cc(-c2ccc3ccccc3n2)c2cc[nH]c2n1

Solution:
1: -1.80; 2: -3.35; 3: -2.91; 4: -2.75; 5: -1.91; 6: -1.95; 7: -1.91

====

- TARGET_DESC: P. pyralis FLuc (Photinus pyralis)
- Sequence (P08659 whole entry): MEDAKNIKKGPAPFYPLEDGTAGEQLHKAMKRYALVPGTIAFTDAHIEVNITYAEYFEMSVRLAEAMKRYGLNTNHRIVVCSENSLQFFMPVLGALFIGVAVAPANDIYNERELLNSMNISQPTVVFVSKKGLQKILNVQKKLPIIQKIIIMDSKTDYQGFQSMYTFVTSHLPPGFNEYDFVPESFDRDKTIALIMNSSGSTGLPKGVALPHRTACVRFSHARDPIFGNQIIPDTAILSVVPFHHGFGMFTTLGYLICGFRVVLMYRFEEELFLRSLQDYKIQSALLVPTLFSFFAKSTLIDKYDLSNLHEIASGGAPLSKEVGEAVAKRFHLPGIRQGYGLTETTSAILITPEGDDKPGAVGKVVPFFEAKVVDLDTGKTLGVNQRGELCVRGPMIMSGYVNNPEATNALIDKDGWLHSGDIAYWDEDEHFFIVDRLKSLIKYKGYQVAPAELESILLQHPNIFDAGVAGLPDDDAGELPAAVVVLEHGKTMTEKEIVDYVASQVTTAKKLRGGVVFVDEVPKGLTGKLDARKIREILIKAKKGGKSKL
- ASSAY_NAME: FLuc enzymatic luminescence assay, P. pyralis FLuc
- Assay type: biochemical
- ASSAY_CONTEXT: FLuc enzymatic assay
For each of the molecules below, state its pIC50 or pSDR50 FLuc E.
Answers are plain numbers.

Consider the reported pIC50 or pSDR50 FLuc E for these molecules:
Problem: Record lookup: for P. pyralis FLuc (Photinus pyralis), what pIC50 or pSDR50 FLuc E belongs to O=C(NCc1ccncc1)C1CCN(C(=O)c2ncn3c2COC(c2ccccc2)C3)CC1 (stereo not shown) [NCGC00449800-01] ?
Solution: 6.01

Problem: Record lookup: for P. pyralis FLuc (Photinus pyralis), what pIC50 or pSDR50 FLuc E belongs to O=C(NCCC1=CCCCC1)C1CCN(C(=O)c2ncn3c2COC(c2ccc(F)cc2)C3)CC1 (stereo not shown) [NCGC00449811-01] ?
Solution: 5.01

Problem: Record lookup: for P. pyralis FLuc (Photinus pyralis), what pIC50 or pSDR50 FLuc E belongs to O=C(NCc1ccc(Cl)cc1)C1CCN(C(=O)c2ncn3c2COC(c2ccccc2)C3)CC1 (stereo not shown) [NCGC00449788-01] ?
Solution: 5.41

Next:
Problem: Record lookup: for P. pyralis FLuc (Photinus pyralis), what pIC50 or pSDR50 FLuc E belongs to O=C(NCc1ccc(F)cc1F)C1CCN(C(=O)c2ncn3c2COC(c2ccccc2)C3)CC1 (stereo not shown) [NCGC00449785-01] ?
Solution: 5.06

====

- TARGET_DESC: FLuc-C-HiBiT (Photinus pyralis, UniProt P08659)
- Construct: firefly luciferase with C-terminal HiBiT tag, E. coli expressed
- Sequence (P08659 whole entry, looked up): as the sequence (P08659 whole entry) above
- ASSAY_NAME: biochemical
- ASSAY_CONTEXT: enzyme activity, 10 uM ATP; read-out: IC50 or SDR50 (mM) / FLuc E
For each of the compounds below, state its IC50.
One number for each entry, in mM.

Problem: Fill blank: measured IC50 of the compound COc1ccc(-c2cc3c(cn2)CN(Cc2ccncc2)CCN3)cc1 is ____.
Solution: 0.0161

Problem: Fill blank: measured IC50 of the compound COc1ccc(NC(=O)N2CCc3c(C(=O)Nc4ccc5c(c4)OCO5)cccc32)cc1 is ____.
Solution: 0.000881

Problem: Fill blank: measured IC50 of the compound CNC(=O)c1cccc(-c2cnc(NC(=O)Cc3ccccc3)c3c2CCO3)c1 is ____.
Solution: 0.00321

In the following, a different compound is considered.
Problem: Fill blank: measured IC50 of the compound N#Cc1c(-n2ncnc2-c2ccccc2Cl)sc2c1CCCCC2 is ____.
Solution: 0.00221

====

- TARGET_DESC: PKA-N-HiBiT (Homo sapiens, UniProt P17612)
- ASSAY_NAME: SDR assay, PKA-N-HiBiT
- ASSAY_CONTEXT: PKA-N-HiBiT qHTS, SDR assay; average maximal response
For each of the compounds below, state its SDR Ave Max Response.

Consider the reported SDR Ave Max Response for these compounds:
Problem: Fill blank: measured SDR Ave Max Response of the compound Cc1ccc(NC(=O)N2CCN(c3nc(N)nc4sc(-c5cccnc5)nc34)CC2)cc1 is ____.
Solution: 3.67

Problem: Fill blank: measured SDR Ave Max Response of the compound Cc1ccc(C(=O)Nc2ccc(CN3CCN(C)CC3)c(C(F)(F)F)c2)cc1C#Cc1cnc2[nH]ncc2c1 is ____.
Solution: 15.19

In the following, a different compound is considered.
Problem: Fill blank: measured SDR Ave Max Response of the compound N#Cc1cn([C@@H]2O[C@H](CO)[C@@H](O)[C@H]2O)c2ncnc(N)c12 is ____.
Solution: -0.53

====

For each of the compounds below, state its SDR No ATP.
- TARGET_DESC: FLuc-C-NLuc (firefly luciferase) (Photinus pyralis, UniProt P08659, form not given/L550V)
- Sequence (P08659 2-550 L550V, form open): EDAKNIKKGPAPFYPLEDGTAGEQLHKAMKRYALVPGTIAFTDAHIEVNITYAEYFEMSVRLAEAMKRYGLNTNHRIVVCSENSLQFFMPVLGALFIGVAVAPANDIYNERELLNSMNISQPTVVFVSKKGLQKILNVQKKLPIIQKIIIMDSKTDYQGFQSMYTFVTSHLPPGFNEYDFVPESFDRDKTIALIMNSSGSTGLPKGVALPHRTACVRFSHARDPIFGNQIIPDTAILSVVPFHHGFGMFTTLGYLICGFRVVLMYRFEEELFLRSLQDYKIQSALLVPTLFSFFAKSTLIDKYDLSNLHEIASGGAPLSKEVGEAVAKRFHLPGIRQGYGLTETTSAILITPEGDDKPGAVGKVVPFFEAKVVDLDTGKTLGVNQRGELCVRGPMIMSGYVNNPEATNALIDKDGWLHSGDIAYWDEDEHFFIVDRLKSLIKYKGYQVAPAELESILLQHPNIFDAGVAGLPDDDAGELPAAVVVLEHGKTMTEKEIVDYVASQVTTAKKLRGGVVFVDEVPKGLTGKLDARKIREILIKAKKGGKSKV
- ASSAY_NAME: SDR assay, FLuc-C-NLuc
- ASSAY_CONTEXT: 1 nM FLuc-C-NLuc; normalized activity; Log [Compound], M -4.96
Answers are plain numbers.

Problem: Fill blank: measured SDR No ATP of the compound CC(CNC(=O)C1CCN(C(=O)c2ncn3c2COC(c2ccccc2)C3)CC1)c1ccccc1 (stereo not shown) is ____.
Solution: -2.1

Problem: Fill blank: measured SDR No ATP of the compound CC1CCCN(c2ncnc3c2cnn3-c2ccccc2)C1 (stereo not shown) is ____.
Solution: 30.0

Problem: Fill blank: measured SDR No ATP of the compound COc1ccc(-c2nc(-c3ccc(C(=O)O)cc3)no2)cc1 is ____.
Solution: 21.4

In the following, a different compound is considered.
Problem: Fill blank: measured SDR No ATP of the compound Fc1ccc(-c2cn3cc(Cc4ccccc4)sc3n2)cc1 is ____.
Solution: 19.6

====

For each of the compounds below, state its IC50.
- TARGET_DESC: FLuc-C-HiBiT (Photinus pyralis, UniProt P08659)
- Construct: firefly luciferase with C-terminal HiBiT tag, E. coli expressed
- ASSAY_NAME: biochemical
- ASSAY_CONTEXT: enzyme activity, 10 uM ATP; read-out: IC50 or SDR50 (mM) / FLuc E
Give bare numbers, in mM.

Consider the reported IC50 for these compounds:
Problem: Fill blank: measured IC50 of the compound c1coc(-c2nc3nccc(-c4ccc5c(c4)OCCCO5)n3n2)c1 is ____.
Solution: 0.00176

Problem: Fill blank: measured IC50 of the compound Cc1ccc2nc(C(=O)N3CCCC3c3cc(C(C)C)on3)cn2c1 (centres unmarked) is ____.
Solution: 0.0157

Problem: Fill blank: measured IC50 of the compound Cc1ccccc1Cn1cccc(C(=O)Nc2nc3ccccc3s2)c1=O is ____.
Solution: 0.000881

Problem: Fill blank: measured IC50 of the compound CC1CCCN(c2ncnc3c2cnn3-c2ccc(Cl)cc2)C1 (centres unmarked) is ____.
Solution: 0.000124

Problem: Fill blank: measured IC50 of the compound COc1cccc(-c2noc(Nc3ccc(OC)c(OC)c3)n2)c1 is ____.
Solution: 0.00394

Provide IC50 for all items below, preserving their order.
1. CCC(=O)NCCC1CCN(C(=O)Nc2ccc(C)cc2)CC1
2. COc1cccc(-c2nc3ccc(-c4ccc5c(c4)OCO5)cc3o2)c1OC
3. Cc1ccc(C2Cn3nnc(C(=O)N4CCC(C(=O)NC5CC5)CC4)c3CO2)cc1 (centres unmarked)
4. Cc1c(C(=O)NCc2cccc(Br)c2)oc2ccc3c(c12)C(=O)CC(C)(C)O3

Solution:
0.0124
0.00248
0.00785
0.0111

Provide IC50 for all items below, preserving their order.
1. Cc1ccc(NC(=O)Nc2ccc(C)n(CC(=O)N3CCC(C)CC3)c2=O)cc1
2. CC1CCCCN1c1csc2ccc(F)cc2c1=O (centres unmarked)
3. CCC(=O)Nc1ccc2nnc(-c3ccc(C(=O)Nc4ccc5c(c4)OCCO5)cc3)n2c1
4. CC(=O)Nc1cc(-c2nc3ccccc3s2)ccc1C

Solution:
1: 0.00394; 2: 0.00881; 3: 0.00881; 4: 0.007

Ref: paper PMC12064818
